Documented Necroptosis inhibition assay (Rescue %) 10 μM across a set of molecules
System: FADD−/− Jurkat cells
TEST_NAME: Necroptosis inhibition assay, TNF-α-induced necroptosis (CellTiter-Glo 2.0)
Assay type: cell-based, human
EXPERIMENTAL_SETUP: compound 10 μM; TNF-α 15 ng/mL, FADD−/− Jurkat cells
The reply should be a number in %, with the unit left off.

Worked examples, 8 molecules total:
| MOLECULE | EXPERIMENTAL_RESULT |
| --- | --- |
| COc1ccc(C(=O)N2CCN(CCCN3CCC(n4cc(-c5cnc(N)c(C(=O)O[C@@H](C(=O)Nc6ccc(F)cc6)c6ccccc6)n5)cn4)CC3)CC2)cc1N1CCC(=O)NC1=O | 14.38 |
| COc1ccc(C(=O)N2CCC(CN3CCC4(CC3)CC(N3CCC(n5cc(-c6cnc(N)c(C(=O)O[C@@H](C(=O)Nc7ccc(F)cc7)c7ccccc7)n6)cn5)CC3)C4)CC2)cc1N1CCC(=O)NC1=O | 11.8 |
| Nc1ncc(-c2cnn(C3CCN(CCOC4CCN(C(=O)c5ccc6c(N7CCC(=O)NC7=O)coc6c5)CC4)CC3)c2)nc1C(=O)O[C@@H](C(=O)Nc1ccc(F)cc1)c1ccccc1 | 14.16 |
| Nc1ncc(-c2cnn(C3CCN(CCOC4CCN(C(=O)C5CN(C6=CC(=O)N(C7CCC(=O)NC7=O)C6=O)C5)CC4)CC3)c2)nc1C(=O)O[C@@H](C(=O)Nc1ccc(F)cc1)c1ccccc1 (stereo partly shown) | 24.58 |
| Nc1ncc(-c2cnn(C3CCN(C(=O)CCC4CCN(C(=O)CCc5cccc6c5CN(C5CCC(=O)NC5=O)C6=O)CC4)CC3)c2)nc1C(=O)O[C@@H](C(=O)Nc1ccc(F)cc1)c1ccccc1 (stereo partly shown) | 43.64 |
| COc1ccc(C(=O)N2CCC(C(=O)N3CCC(OCCN4CCC(CN5CCC(n6cc(-c7cnc(N)c(C(=O)O[C@@H](C(=O)Nc8ccc(F)cc8)c8ccccc8)n7)cn6)CC5)CC4)CC3)CC2)cc1N1CCC(=O)NC1=O | 52.33 |
| Nc1ncc(-c2cnn(C3CCN(CC4CCN(CC5CCN(C(=O)C6CN(C7=CC(=O)N(C8CCC(=O)NC8=O)C7=O)C6)CC5)CC4)CC3)c2)nc1C(=O)O[C@@H](C(=O)Nc1ccc(F)cc1)c1ccccc1 (stereo partly shown) | 22.99 |
| Nc1ncc(-c2cnn(C3CCN(CCOC4CCN(C(=O)c5ccc(C(=O)NC6CCC(=O)NC6=O)cc5)CC4)CC3)c2)nc1C(=O)O[C@@H](C(=O)Nc1ccc(F)cc1)c1ccccc1 (stereo partly shown) | 21.52 |

Short answer for Nc1ncc(-c2cnn(C3CCN(C(=O)C4CCN(C(=O)C5CCN(c6cccc7nnn(C8CCC(=O)NC8=O)c(=O)c67)CC5)CC4)CC3)c2)nc1C(=O)O[C@@H](C(=O)Nc1ccc(F)cc1)c1ccccc1 (stereo partly shown) : Necroptosis inhibition assay (Rescue %) 10 μM was 13.19

Lookup result for Nc1ncc(-c2cnn(C3CCN(C4CC5(CCN(CC6CCN(C(=O)Cc7cccc(NC8=CC(=O)N(C9CCC(=O)NC9=O)C8=O)c7)CC6)CC5)C4)CC3)c2)nc1C(=O)O[C@@H](C(=O)Nc1ccc(F)cc1)c1ccccc1 (stereo partly shown) ; measured Necroptosis inhibition assay (Rescue %) 10 μM: 0.16

In plain terms, Nc1ncc(-c2cnn(C3CCN(CCCN4CCN(C(=O)C5CN(C6=CC(=O)N(C7CCC(=O)NC7=O)C6=O)C5)CC4)CC3)c2)nc1C(=O)O[C@@H](C(=O)Nc1ccc(F)cc1)c1ccccc1 (stereo partly shown) has a documented Necroptosis inhibition assay (Rescue %) 10 μM of 24.82

Data point: Nc1ncc(-c2cnn(C3CCN(CC4CCN(C5=CC(=O)N(C6CCC(=O)NC6=O)C5=O)CC4)CC3)c2)nc1C(=O)O[C@@H](C(=O)Nc1ccc(F)cc1)c1ccccc1 (stereo partly shown) ; Necroptosis inhibition assay (Rescue %) 10 μM = 1.33

// `COc1ccc(C(=O)N2CCC(C(=O)N3CCC(CN4CCC(CCN5CCC(n6cc(-c7cnc(N)c(C(=O)O[C@@H](C(=O)Nc8ccc(F)cc8)c8ccccc8)n7)cn6)CC5)CC4)CC3)CC2)cc1N1CCC(=O)NC1=O` : Necroptosis inhibition assay (Rescue %) 10 μM value = 46.16

###

TARGET_OR_TEST_SYSTEM: MLKL (Homo sapiens)
TEST_NAME: MLKL degradation assay in HepG2 cell line (western blot)
Assay type: cell-based
Set-up: endogenous in cells; host or cells: HepG2 or HaCaT
EXPERIMENTAL_SETUP: compound 1 μM; cell line not given
MEASURED_QUANTITY: Degradation assay (Degradation %) 1 μM
Value expressed in %; do not type the unit.

Record Nc1ncc(-c2cnn(C3CCN(CCOCCOCCNC(=O)C4CCN(c5ccc6c(c5)C(=O)N(C5CCC(=O)NC5=O)C6=O)CC4)CC3)c2)nc1C(=O)O[C@@H](C(=O)Nc1ccc(F)cc1)c1ccccc1 (stereo partly shown) , field Degradation assay (Degradation %) 1 μM: 4.54

###

Catalogue of Degradation assay (Degradation %) 10 μM readings, one per entry.
TARGET_OR_TEST_SYSTEM: UniProtKB Q8NB16
Sequence (Q8NB16 1-471): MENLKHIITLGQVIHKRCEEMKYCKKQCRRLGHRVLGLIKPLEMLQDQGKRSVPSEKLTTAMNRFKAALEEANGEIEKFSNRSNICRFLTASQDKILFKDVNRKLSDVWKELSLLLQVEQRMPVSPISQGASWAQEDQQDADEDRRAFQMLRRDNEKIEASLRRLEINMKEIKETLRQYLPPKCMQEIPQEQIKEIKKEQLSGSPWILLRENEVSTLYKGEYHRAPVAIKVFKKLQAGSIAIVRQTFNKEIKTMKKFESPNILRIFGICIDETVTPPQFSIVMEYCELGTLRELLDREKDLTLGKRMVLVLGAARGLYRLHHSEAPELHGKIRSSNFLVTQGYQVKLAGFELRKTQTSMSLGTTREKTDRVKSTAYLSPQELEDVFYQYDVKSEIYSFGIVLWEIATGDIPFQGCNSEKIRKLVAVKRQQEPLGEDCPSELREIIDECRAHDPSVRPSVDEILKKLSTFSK
TEST_NAME: MLKL degradation assay in HepG2 cell line (western blot)
Assay type: cell-based
Design: endogenous in cells; host or cells: HepG2 or HaCaT
EXPERIMENTAL_SETUP: compound 10 μM; cell line not given
Quick note: give the figure in %, leave out the unit.

// worked examples, Degradation assay (Degradation %) 10 μM included
| COMPOUND | SCALE_UNIT | EXPERIMENTAL_RESULT |
| --- | --- | --- |
| Nc1ncc(-c2cnn(C3CCN(CCCN4CCN(C(=O)CCc5ccc6c(c5)CN(C5CCC(=O)NC5=O)C6=O)CC4)CC3)c2)nc1C(=O)O[C@@H](C(=O)Nc1ccc(F)cc1)c1ccccc1 (stereo partly drawn) | % | 73.34 |
| Nc1ncc(-c2cnn(C3CN(CC4CCN(C(=O)CNc5cccc6c5C(=O)N(C5CCC(=O)NC5=O)C6=O)CC4)C3)c2)nc1C(=O)OC(C(=O)Nc1ccc(F)cc1)c1ccccc1 (stereo not drawn) | % | 62.01 |

Turning to the following compound.
Reading of Degradation assay (Degradation %) 10 μM for Nc1ncc(-c2ccc(N3CCN(CC4CCN(C(=O)CNc5ccc6c(c5)C(=O)N(C5CCC(=O)NC5=O)C6=O)CC4)CC3)nc2)nc1C(=O)OC(C(=O)Nc1ccc(F)cc1)c1ccccc1 (stereo not drawn) with UniProtKB Q8NB16: 16.2

###

TARGET_OR_TEST_SYSTEM: MLKL (Homo sapiens, UniProt Q8NB16)
TEST_NAME: MLKL degradation assay in HepG2 cell line (western blot)
Type: cell-based
Parameters: endogenous in cells; host or cells: HepG2 or HaCaT
EXPERIMENTAL_SETUP: compound 1 μM; cell line not given
MEASURED_QUANTITY: Degradation assay (Degradation %) 1 μM
Entry rule: numbers only, all in %.

Sample answers from the record:
| COMPOUND | TARGET_OR_TEST_SYSTEM | EXPERIMENTAL_RESULT |
| --- | --- | --- |
| Nc1ncc(-c2cnn(C3CCN(CCc4cn(C5CCN(C(=O)CNc6ccc7c(c6)C(=O)N(C6CCC(=O)NC6=O)C7=O)CC5)nn4)CC3)c2)nc1C(=O)O[C@@H](C(=O)Nc1ccc(F)cc1)c1ccccc1 (stereo partly shown) | MLKL (Homo sapiens, UniProt Q8NB16) | 61.94 |
| COc1ccc(C(=O)N2CCC3(CC2)CC(N2CCC(CN4CCC(n5cc(-c6cnc(N)c(C(=O)O[C@@H](C(=O)Nc7ccc(F)cc7)c7ccccc7)n6)cn5)CC4)CC2)C3)cc1N1CCC(=O)NC1=O | MLKL (Homo sapiens, UniProt Q8NB16) | 93.09 |
| Nc1ncc(-c2cnn(C3CCN(C(=O)CC4CCN(C(=O)CC5CCN(c6ccc7c(c6)C(=O)N(C6CCC(=O)NC6=O)C7=O)CC5)CC4)CC3)c2)nc1C(=O)O[C@@H](C(=O)Nc1ccc(F)cc1)c1ccccc1 (stereo partly shown) | MLKL (Homo sapiens, UniProt Q8NB16) | 65.36 |
| Nc1ncc(-c2cnn(C3CCN(C(=O)COC4CCN(C(=O)CNc5cccc6c5C(=O)N(C5CCC(=O)NC5=O)C6=O)CC4)CC3)c2)nc1C(=O)O[C@@H](C(=O)Nc1ccc(F)cc1)c1ccccc1 (stereo partly shown) | MLKL (Homo sapiens, UniProt Q8NB16) | 88.76 |
| Nc1ncc(-c2cnn(C3CCN(C4CC5(CCN(CC6CCN(C(=O)c7ccc(C(=O)NC8CCC(=O)NC8=O)cc7)CC6)CC5)C4)CC3)c2)nc1C(=O)O[C@@H](C(=O)Nc1ccc(F)cc1)c1ccccc1 (stereo partly shown) | MLKL (Homo sapiens, UniProt Q8NB16) | 64.82 |

Query Nc1ncc(-c2cnn(C3CCN(C(=O)COC4CCN(C(=O)COc5ccc6c(c5)C(=O)N(C5CCC(=O)NC5=O)C6=O)CC4)CC3)c2)nc1C(=O)O[C@@H](C(=O)Nc1ccc(F)cc1)c1ccccc1 (stereo partly shown) yields Degradation assay (Degradation %) 1 μM of 60.83

Degradation assay (Degradation %) 1 μM measured on Nc1ncc(-c2cnn(C3CCN(CC4CCN(C(=O)CCc5cccc6c5CN(C5CCC(=O)NC5=O)C6=O)CC4)CC3)c2)nc1C(=O)O[C@@H](C(=O)Nc1ccc(F)cc1)c1ccccc1 (stereo partly shown) = 81.59

Nc1ncc(-c2cnn(C3CCN(C(=O)C4CCN(C(=O)CNc5ccc6c(c5)C(=O)N(C5CCC(=O)NC5=O)C6=O)CC4)CC3)c2)nc1C(=O)OC(C(=O)Nc1ccc(F)cc1)c1ccccc1 (stereo not shown) has a reported Degradation assay (Degradation %) 1 μM of 78.62

Input Nc1ncc(-c2cnn(C3CCN(C(=O)C4CCN(C(=O)COc5ccc6c(c5)C(=O)N(C5CCC(=O)NC5=O)C6=O)CC4)CC3)c2)nc1C(=O)OC(C(=O)Nc1ccc(F)cc1)c1ccccc1 (stereo not shown) . Output Degradation assay (Degradation %) 1 μM: 64.63

For record Nc1ncc(-c2cnn(C3CCN(CCOCCOCCOCCNC(=O)C4CN(c5ccc6c(c5)C(=O)N(C5CCC(=O)NC5=O)C6=O)C4)CC3)c2)nc1C(=O)O[C@@H](C(=O)Nc1ccc(F)cc1)c1ccccc1 (stereo partly shown) the listed Degradation assay (Degradation %) 1 μM is 19.42
